The reported measurements were obtained from the supplement of paper PMC9170038.

System: MS2 coat protein
test_method_notes: apparent KD of MS2 coat protein; higher = weaker reporter binding
measurement_setup: Eterna round: R107; input ligand: theophylline 2 mM
parameter_measured: apparent KD of MS2 coat protein (nM)

item_sequence="GAUUUAACAAAAGUUGGAUCAGUGGGUGAACGAGGACCGGUACGGCCGCCACUCGGACAUGAGGAUCACCCAUGUCCAUGUGAAA [AstrosExyTryA#19]" tested_target="MS2 coat protein" parameter_measured="apparent KD of MS2 coat protein" numeric_value=121
item_sequence="AUUACAUGAGCAUCAGCACAUGAGGAUCACCGAGGACCGGUACGGCCGCCACUCGACACAUGAGGAUCACCCAUGUGUUGUUGUU [Exclusion Tryptophan A 3]" tested_target="MS2 coat protein" parameter_measured="apparent KD of MS2 coat protein" numeric_value=281
item_sequence="ACACAUGAGGAUCACCCAUGUUGAGGAACACGAGGACCGGUACGGCCGCCACUCGACACAUGAGGAUCACCCAUGUGAUCACCCA [Same State Tryptophan A 2]" tested_target="MS2 coat protein" parameter_measured="apparent KD of MS2 coat protein" numeric_value=173
item_sequence=UGUAUGUGAUCUGAUACCAGUCCAACUGGUAAAGCGUGAGGAUCACCCAUGCAAAAUUGGGACCCUUGGCAGCAGAUCGCAUACU tested_target="MS2 coat protein" parameter_measured="apparent KD of MS2 coat protein" numeric_value=208
item_sequence="UUUUAAGGGAUCGGAGCUGGUAGCAGAGAUACCAGAGUAGUAAUGCUCCCUUGGCAGCUCAGUACAUGAGGAUCACCCAUGUUUU [Exclusion Theophylline A GF26]" tested_target="MS2 coat protein" parameter_measured="apparent KD of MS2 coat protein" numeric_value=25.3
item_sequence="CCGCCUGCCUCACAUGAGGAUCACCCAUGUCGAGGACCGGUACGGCCGCCACUCGUCGUCGGUAAUACAGGCAUUGAAUAAUAUA [Vetire]" tested_target="MS2 coat protein" parameter_measured="apparent KD of MS2 coat protein" numeric_value=12.1

* * *

Measured apparent KD of K4 kissing-loop reporter accompanies every entry in the list below.
Tested on: K4 kissing-loop RNA reporter;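 further: bound reporter read as fluorescence of individual clusters on recovered sequencing chips by microscopy, with normalized cluster intensities fitted with a binding model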
test_method_notes: apparent KD of K4 kissing-loop reporter; higher = weaker reporter binding
measurement_setup: Eterna round: R107; input ligand: arginine 13.2 mM
parameter_measured: apparent KD of K4 kissing-loop reporter (µM)

item_sequence="GCAAACCUCAGUGAUGUUGAGAAAUCGGAAGGAGCGCGUGAAAACGCAGGUAGGUCGCCGACACAUGAAGUAUCUUCGUGUUUGC [Arginine A K4 22]" tested_target="K4 kissing-loop RNA reporter" parameter_measured="apparent KD of K4 kissing-loop reporter" endpoint_unit=µM numeric_value=0.272
item_sequence="UUUUAUUAAUUCUUCUAGUGAUGUUAGAUACGAGGACCGGUACGGCCGCCACUCGCUUAUUGGUUUAUAAAUUUUAUAUUAUUUA [JR_SSTryptoA_Sub016]" tested_target="K4 kissing-loop RNA reporter" parameter_measured="apparent KD of K4 kissing-loop reporter" endpoint_unit=µM numeric_value=0.296
item_sequence="GGACGACAGUCGGCCGCCACUCACAGCCGAGUGAUGUUCGGGAUUGUAGCGGAGUGAUGUUUCGCGAGGACCGGGACUGCAGUCC [Same State Typtophan B GF 27]" tested_target="K4 kissing-loop RNA reporter" parameter_measured="apparent KD of K4 kissing-loop reporter" endpoint_unit=µM numeric_value=0.166
item_sequence="AAACGUUGGUGCGAUACCAGCUGCUCGGAAACGAGCUUGCUGGAGUGAUGUUCCAGGAAAAGCCCUUGGCAGCGCACCGACGAAA [MAT - Same State Theophlline B - Mod of Eli - D27]" tested_target="K4 kissing-loop RNA reporter" parameter_measured="apparent KD of K4 kissing-loop reporter" endpoint_unit=µM numeric_value=0.561
item_sequence="CAAGGACGGCCGUAGGCAUACCGUCGAUUCAAGGAUAUCAAGAGAAUGAGAAGGUGAAGUUUAUACAGUGAUGUUGCUAUAGAGA [theeternabot_sameState_KL_FMN_A_6]" tested_target="K4 kissing-loop RNA reporter" parameter_measured="apparent KD of K4 kissing-loop reporter" endpoint_unit=µM numeric_value=0.122
